# TARGET OR TEST SYSTEM: hGLP-1R (Homo sapiens, UniProt P43220)
# Sequence (P43220 24-463): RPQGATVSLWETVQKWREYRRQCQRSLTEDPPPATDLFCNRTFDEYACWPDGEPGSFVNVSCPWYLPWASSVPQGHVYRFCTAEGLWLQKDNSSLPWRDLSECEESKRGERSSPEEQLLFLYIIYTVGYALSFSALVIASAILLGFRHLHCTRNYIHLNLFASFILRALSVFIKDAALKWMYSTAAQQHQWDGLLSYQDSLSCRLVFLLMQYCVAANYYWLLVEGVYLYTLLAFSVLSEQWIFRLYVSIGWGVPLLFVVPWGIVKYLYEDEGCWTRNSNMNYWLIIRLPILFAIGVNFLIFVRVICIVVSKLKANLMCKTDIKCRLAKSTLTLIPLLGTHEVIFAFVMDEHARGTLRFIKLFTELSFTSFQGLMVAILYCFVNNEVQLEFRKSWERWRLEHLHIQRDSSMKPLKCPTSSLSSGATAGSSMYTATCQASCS
# ASSAY OVERVIEW: cell-based or functional assay
Starred links: 1 amine or outer side, 2 acyl side, 3 side chain; linkers in the order of their positions; H or OH if unused. Non-standard residues stand in square brackets, D forms with d. Groups on a side chain read outwards from the residue. No end group written: not given here. *: point of attachment. C20 diacid = O=C(O)CCCCCCCCCCCCCCCCCCC(=O)*; γGlu = O=C(O)[C@H](CCC(=O)[*:2])N[*:1]; αMeL = CC(C)C[C@](C)(N)C(=O)O; Orn = NCCC[C@H](N)C(=O)O; AEEA = NCCOCCOCC(=O)O; Aib = CC(C)(N)C(=O)O
METRIC: log10(Relative cAMP EC50) (log10 of the value in nM)
A difference of one corresponds to tenfold Relative cAMP EC50; all values are log10 with Relative cAMP EC50 in nM.

HXQGTXTSDYSILLDKKAAXAFIEYLIEAGPSSGEPPPSEG (not fully specified; synthetic construct; SITE 2: note = 2-Aminoisobutyric Acid; SITE 6: note = alpha-methyl-2-fluoro-L-phenylalanine; SITE 17: note = Lysine is chemically modified through conjugation of the epsilon-amino group of the Lysine side chain with (2-[2-(2-Amino-ethoxy)-ethoxy]-acetyl)-(gamma-Glu)-CO-(CH2) 18-) [Example 298]
-0.56
YXQGTXTSDXXIXLDXKAQXEFIEXLVEGGPSSGAPPPEGE (not fully specified; non-natural residues, lysine acylation, C-terminal amide; synthetic construct; SITE 2: note = 2-Aminoisobutyric Acid; SITE 6: note = alpha-methyl-2-fluoro-L-phenylalanine; SITE 10: note = 3-(4-Pyridyl)-L-alanine; SITE 11: note = alpha-methyl-L-serine; SITE 13: note = alpha-methyl-leucine; SITE 16: note = L-ornithine; SITE 17: note = Lysine is chemically mo) [Example 1158]
-0.38
YXQGTFTSDXSQXLDXKAQXAFIEYLIAGGPSSGEPPPSGTEEE (synthetic construct; SITE 2: note = 2-Aminoisobutyric Acid; SITE 10: note = 3-(4-Pyridyl)-L-alanine; SITE 13: note = alpha-methyl-leucine; SITE 16: note = L-ornithine; SITE 17: note = Lysine is chemically modified through conjugation of the epsilon-amino group of the Lysine side chain with (gamma-Gl)) [Example 986]
0.49
YXQGTFTSDXSKXLDKKAQXAFIEYLIAXGESSGAPPPSGS (synthetic construct; SITE 2: note = 2-Aminoisobutyric Acid; SITE 10: note = 3-(4-Pyridyl)-L-alanine; SITE 13: note = alpha-methyl-leucine; SITE 17: note = Lysine is chemically modified through conjugation of the epsilon-amino group of the Lysine side chain with (2-[2-(2-Amino-ethoxy)-ethoxy]-acetyl)) [Example 285]
0.46
YXQGTFTSDXSXXLDXKAQXAFIEYLLAGGPSSGAPPPSGSEE (non-natural residues; acylated Lys; C-terminal amide; synthetic construct; SITE 2: note = 2-Aminoisobutyric Acid; SITE 10: note = 3-(4-Pyridyl)-L-alanine; SITE 12: note = L-ornithine; SITE 13: note = alpha-methyl-leucine; SITE 16: note = L-ornithine; SITE 17: note = Lysine is chemically modified through conjugation of the epsilon-amino group of the Lys) [Example 1069]
0.95
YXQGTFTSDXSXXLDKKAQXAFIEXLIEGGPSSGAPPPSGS (synthetic construct; SITE 2: note = 2-Aminoisobutyric Acid; SITE 10: note = 3-(4-Pyridyl)-L-alanine; SITE 12: note = L-ornithine; SITE 13: note = alpha-methyl-leucine; SITE 17: note = Lysine is chemically modified through conjugation of the epsilon-amino group of the Lysine side chain with (gamma-Gl)) [Example 941]
-0.12
YXQGTFTSDXSQXLDKKAQXAFIEXLIEXGPSSGAPPPSGSEE (Aib, 4Pal, αMeL, Me4Pal; K (γGlu)2-C18 diacid; amide; synthetic construct; SITE 2: note = 2-Aminoisobutyric Acid; SITE 10: note = 3-(4-Pyridyl)-L-alanine; SITE 13: note = alpha-methyl-leucine; SITE 17: note = Lysine is chemically modified through conjugation of the epsilon-amino group of the Lysine side chain with (gamma-Glu)2-CO-(CH2)16-CO2H; SITE 20:) [Example 1122]
0.75
Y[Aib]QGTFTSDYSI[αMeL]LDKIAAK([AEEA-AEEA-γGlu-C20 diacid])[Orn]FVQYLIAGGPSSGEPPPSEG-NH2 (ends and bridges not checked) [Example 308]
0.50

Recorded log10(Relative cAMP EC50) (binder YXQGTFTSDXXQXLDXKAQXQFIQXLIAXGPSSGAPPPSGGGE (not fully specified; Lys acylated γGlu-C18 diacid; non-natural residues; C-amide; synthetic construct; SITE 2: note = 2-Aminoisobutyric Acid; SITE 10: note = 3-(4-Pyridyl)-L-alanine; SITE 11: note = alpha-methyl-L-serine; SITE 13: note = alpha-methyl-leucine; SITE 16: note = L-ornithine; SITE 17: note = Lysine is chemically modified through conjugation of the epsilon-amino group) [Example 1132] ): -0.17

Recorded log10(Relative cAMP EC50) (binder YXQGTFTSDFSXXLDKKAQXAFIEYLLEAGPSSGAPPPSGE (synthetic construct; SITE 2: note = 2-Aminoisobutyric Acid; SITE 12: note = L-ornithine; SITE 13: note = alpha-methyl-leucine; SITE 17: note = Lysine is chemically modified through conjugation of the epsilon-amino group of the Lysine side chain with (2-[2-(2-Amino-ethoxy)-ethoxy]-acetyl)-(gamma-Glu)) [Example 129] ): 0.27

Recorded log10(Relative cAMP EC50) (binder Y[Aib]QGTFTSDYSI[αMeL]LDKIAAK([AEEA-AEEA-γGlu-C20 diacid])QFVQWLIE[Aib]GPSSGEPPPSEG-NH2 (ends and bridges not checked) [Example 323] ): 0.19

Recorded log10(Relative cAMP EC50) (binder YXQGTXTSDXSILLDKKAQXAFIEXLEEGGPSSGAPPPSGTGE (synthetic construct; SITE 2: note = 2-Aminoisobutyric Acid; SITE 6: note = alpha-methyl-2-fluoro-L-phenylalanine; SITE 10: note = 3-(4-Pyridyl)-L-alanine; SITE 17: note = Lysine is chemically modified through conjugation of the epsilon-amino group of the Lysine side chain with (2-[2-(2-Amino-ethoxy))) [Example 669 (SEQ ID NO: 675)] ): -0.57

Recorded log10(Relative cAMP EC50) (binder Y[Aib]QGTFTSDYSI[αMeL]LDKIAAK([AEEA-AEEA-γGlu-C20 diacid])QFVEWLLA[Aib]GPSSGEPPPSEG-NH2 [Example 324] ): 0.64

Recorded log10(Relative cAMP EC50) (binder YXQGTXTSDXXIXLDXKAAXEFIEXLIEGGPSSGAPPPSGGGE (synthetic construct; SITE 2: note = 2-Aminoisobutyric Acid; SITE 6: note = alpha-methyl-2-fluoro-L-phenylalanine; SITE 10: note = 3-(4-Pyridyl)-L-alanine; SITE 11: note = alpha-methyl-L-serine; SITE 13: note = alpha-methyl-leucine; SITE 16: note = L-ornithine; SITE 17: note = Lysine is chemically mo) [Example 745] ): -0.67

Recorded log10(Relative cAMP EC50) (binder YXQGTFTSDXSXXLDKKAQXAFIEWLLEGGPSSGEPPPSGE (synthetic construct; SITE 2: note = 2-Aminoisobutyric Acid; SITE 10: note = 3-(4-Pyridyl)-L-alanine; SITE 12: note = L-ornithine; SITE 13: note = alpha-methyl-leucine; SITE 17: note = Lysine is chemically modified through conjugation of the epsilon-amino group of the Lysine side chain with (2-[2-(2-) [Example 115] ): 0.88

Recorded log10(Relative cAMP EC50) (binder YXQGTFTSDXSQXLDXKAQXAFIEXLIEXGPSSGAPPPSGSEE (non-natural residues; C18 diacid-γGlu-AEEA on Lys; C-terminal amide; synthetic construct; SITE 2: note = 2-Aminoisobutyric Acid; SITE 10: note = 3-(4-Pyridyl)-L-alanine; SITE 13: note = alpha-methyl-leucine; SITE 16: note = L-ornithine; SITE 17: note = Lysine is chemically modified through conjugation of the epsilon-amino group of the Lysine side chain with (2-[2-(2-) [Example 1108] ): -0.12

Recorded log10(Relative cAMP EC50) (binder YXQGTFTSDFSXXLDKKAQXAFIEYLLEGGPSSGEPPPSEG (synthetic construct; SITE 2: note = 2-Aminoisobutyric Acid; SITE 12: note = L-ornithine; SITE 13: note = alpha-methyl-leucine; SITE 17: note = Lysine is chemically modified through conjugation of the epsilon-amino group of the Lysine side chain with (2-[2-(2-Amino-ethoxy)-ethoxy]-acetyl)-(gamma-Glu)) [Example 59] ): 0.68

Recorded log10(Relative cAMP EC50) (binder YXQGTXTSDXXIXLDXIAQXXFIEXLIKGGPSSGEPPPE (not fully specified; synthetic construct; SITE 2: note = 2-Aminoisobutyric Acid; SITE 6: note = alpha-methyl-2-fluoro-L-phenylalanine; SITE 10: note = 3-(4-Pyridyl)-L-alanine; SITE 11: note = alpha-methyl-L-serine; SITE 13: note = alpha-methyl-leucine; SITE 16: note = L-ornithine; SITE 20: note = 2-Aminoisobutyric Acid;) [Example 444] ): -0.45
